Origin of values: ChEMBL document CHEMBL1149183

# tgt: Endothelin-1 receptor (Homo sapiens, UniProt P25101)
# Sequence (P25101 whole entry): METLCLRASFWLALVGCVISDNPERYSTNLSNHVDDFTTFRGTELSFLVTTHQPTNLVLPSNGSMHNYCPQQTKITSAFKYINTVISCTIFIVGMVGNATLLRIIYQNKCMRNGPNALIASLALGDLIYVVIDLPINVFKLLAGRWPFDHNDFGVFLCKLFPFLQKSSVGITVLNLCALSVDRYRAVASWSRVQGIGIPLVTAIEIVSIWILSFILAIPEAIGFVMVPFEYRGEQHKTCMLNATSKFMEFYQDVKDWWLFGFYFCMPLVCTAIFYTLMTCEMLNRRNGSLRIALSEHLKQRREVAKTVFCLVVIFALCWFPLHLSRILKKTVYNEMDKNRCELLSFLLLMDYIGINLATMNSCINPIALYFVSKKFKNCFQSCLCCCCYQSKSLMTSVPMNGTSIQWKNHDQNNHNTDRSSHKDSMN
# assay explanation: Antagonist activity towards human recombinant Endothelin A receptor expressed in chinese hamster ovary (CHO) cells determined using [125I]ET1 as radioligand
Measured IC50, listed per entry.
measured attribute: IC50 (nM)

- compound: "COc1ccc(CN2C(=O)CN[C@](c3cccc(OC)c3)([C@H](Oc3nc(C)cc(C)n3)C(=O)O)c3ccccc32)cc1 (racemic)"
  measured attribute: "IC50"
  unit abbreviation: "nM"
  endpoint value: 10.2
- compound: "COC(c1ccccc1)(c1ccccc1)[C@H](Oc1nc(C)cc(C)n1)C(=O)O (racemic) [AMBRISENTAN]"
  measured attribute: "IC50"
  unit abbreviation: "nM"
  endpoint value: 21.7
- compound: "Cc1cc(C)nc(O[C@H](C(=O)O)[C@@]2(c3ccccc3)NCC(=O)N(CC3CC3)c3ccccc32)n1 (racemic)"
  measured attribute: "IC50"
  unit abbreviation: "nM"
  endpoint value: 7.3
- compound: "Cc1cccc(CN2C(=O)CN[C@](c3ccccc3)([C@H](Oc3nc(C)cc(C)n3)C(=O)O)c3ccccc32)c1 (racemic)"
  measured attribute: "IC50"
  unit abbreviation: "nM"
  endpoint value: 5

###

# tgt: Endothelin receptor type B (Homo sapiens, UniProt P24530)
# Sequence (P24530 whole entry): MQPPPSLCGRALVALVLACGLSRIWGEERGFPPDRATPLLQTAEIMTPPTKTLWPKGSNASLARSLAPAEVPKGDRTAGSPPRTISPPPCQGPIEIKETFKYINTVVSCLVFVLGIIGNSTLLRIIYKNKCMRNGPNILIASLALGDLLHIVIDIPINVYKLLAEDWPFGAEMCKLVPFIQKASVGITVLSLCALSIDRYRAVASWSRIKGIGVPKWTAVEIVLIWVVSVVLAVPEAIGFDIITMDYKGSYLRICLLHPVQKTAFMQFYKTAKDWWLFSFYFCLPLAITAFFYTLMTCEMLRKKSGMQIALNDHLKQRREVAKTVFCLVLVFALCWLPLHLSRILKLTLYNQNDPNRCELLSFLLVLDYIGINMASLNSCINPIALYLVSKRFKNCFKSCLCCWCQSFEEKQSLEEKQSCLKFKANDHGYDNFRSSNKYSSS
# assay explanation: Antagonist activity towards human recombinant Endothelin B receptor expressed in chinese hamster ovary (CHO) cells determined using [125I]ET1 as radioligand
Measured IC50, listed per entry.

- compound: "Cc1cc(C)nc(O[C@H](C(=O)O)[C@@]2(c3ccccc3)NCc3nnc(CC(=O)O)n3-c3ccccc32)n1 (racemic)"
  IC50, nM: 261
- compound: "COc1ccc(CN2C(=O)CN[C@](c3cccc(Cl)c3)([C@H](Oc3nc(C)cc(C)n3)C(=O)O)c3ccccc32)cc1 (racemic)"
  IC50, nM: 78.2
- compound: "CCCCc1cccc([C@]2([C@H](Oc3nc(C)cc(C)n3)C(=O)O)NCC(=O)N(Cc3c(C)cc(C)cc3C)c3ccccc32)c1 (racemic)"
  IC50, nM: 13.6
- compound: "Cc1ccc(CN2C(=O)CN[C@](c3ccccc3)([C@H](Oc3nc(C)cc(C)n3)C(=O)O)c3ccccc32)cc1 (racemic)"
  IC50, nM: 68.8

###

# assay explanation: Log D value was evaluated
# Format: physicochemical
# test conditions: octanol/water, pH 7.4; read-out: Log D7.4
// boundary case: logD equal to 2 maps to Not met; strictly smaller maps to Met

- compound: "Cc1cc(C)nc(O[C@H](C(=O)O)[C@@]2(c3ccccc3)NCC(=O)N(C)c3ccccc32)n1 (racemic)"
  cat: "Met"
- compound: "Cc1cc(C)nc(O[C@H](C(=O)O)[C@@]2(c3cccc(-c4ccccc4)c3)NCC(=O)N(Cc3c(F)cc(F)cc3F)c3ccccc32)n1 (racemic)"
  cat: "Met"
- compound: "Cc1cc(C)cc(O[C@H](C(=O)O)[C@@]2(c3ccccc3)NCC(=O)N(Cc3c(F)cc(F)cc3F)c3ccccc32)c1 (racemic)"
  cat: "Not met"
- compound: "Cc1cc(C)nc(O[C@H](C(=O)O)[C@@]2(c3ccccc3)NCC(=O)N(Cc3c(F)cc(F)cc3F)c3ccccc32)n1 (racemic)"
  cat: "Met"
- compound: "CCCCc1cccc([C@]2([C@H](Oc3nc(C)cc(C)n3)C(=O)O)NCC(=O)N(Cc3c(F)cc(F)cc3F)c3ccccc32)c1 (racemic)"
  cat: "Not met"

###

# tgt: Endothelin receptor (Rattus norvegicus, UniProt P26684+P21451)
# assay explanation: Inhibitory potency at native endothelin A and endothelin B receptors by inhibiting endothelin-1 contractions of rat aortic rings
# Format: functional
Label false (0) if pA2 falls below 8; label true (1) in every other case.

- compound: "Cc1cc(C)cc(O[C@H](C(=O)O)[C@@]2(c3ccccc3)NCC(=O)N(Cc3c(F)cccc3Cl)c3ccccc32)c1 (racemic)"
  cat: "false (0)"
- compound: "CCc1cccc([C@]2([C@H](Oc3nc(C)cc(C)n3)C(=O)O)NCC(=O)N(Cc3ccc(OC)cc3)c3ccccc32)c1 (racemic)"
  cat: "false (0)"
- compound: "Cc1cc(C)nc(O[C@H](C(=O)O)[C@@]2(c3ccccc3)NCC(=O)N(Cc3ccc(OC(F)(F)F)cc3)c3ccccc32)n1 (racemic)"
  cat: "false (0)"
- compound: "Cc1cc(C)nc(O[C@H](C(=O)O)[C@@]2(c3ccccc3)NCC(=O)N(Cc3ccccc3F)c3ccccc32)n1 (racemic)"
  cat: "false (0)"
- compound: "CCCCc1cccc([C@]2([C@H](Oc3nc(C)cc(C)n3)C(=O)O)NCC(=O)N(Cc3c(F)cc(F)cc3F)c3ccccc32)c1 (racemic)"
  cat: "true (1)"
- compound: "Cc1cc(C)nc(O[C@H](C(=O)O)[C@@]2(c3ccccc3)NCC(=O)N(CCO)c3ccccc32)n1 (racemic)"
  cat: "false (0)"
- compound: "COc1ccc(CN2C(=O)CN[C@](c3ccccc3)([C@H](Oc3nc(C)cc(C)n3)C(=O)O)c3ccccc32)cc1 (racemic)"
  cat: "false (0)"
- compound: "Cc1cc(C)nc(O[C@H](C(=O)O)[C@@]2(c3cccc(-c4ccccc4)c3)NCC(=O)N(Cc3c(F)cc(F)cc3F)c3ccccc32)n1 (racemic)"
  cat: "true (1)"
- compound: "Cc1cc(C)nc(O[C@H](C(=O)O)[C@@]2(c3ccccc3)NCC(=O)N(Cc3c(Cl)cccc3Cl)c3ccccc32)n1 (racemic)"
  cat: "true (1)"
- compound: "Cc1cc(C)cc(O[C@H](C(=O)O)[C@@]2(c3ccccc3)NCC(=O)N(Cc3c(F)cc(F)cc3F)c3ccccc32)c1 (racemic)"
  cat: "true (1)"
- compound: "Cc1cc(C)nc(O[C@H](C(=O)O)[C@@]2(c3ccccc3)NCC(=O)N(Cc3nn[nH]n3)c3ccccc32)n1 (racemic)"
  cat: "false (0)"
- compound: "COc1ccc(CN2C(=O)CN[C@](c3ccc(F)c(C)c3)([C@H](Oc3nc(C)cc(C)n3)C(=O)O)c3ccccc32)cc1 (racemic)"
  cat: "false (0)"

###

# tgt: Endothelin receptor (Rattus norvegicus, UniProt P26684+P21451)
# assay explanation: Inhibitory potency at native endothelin A and endothelin B receptors by inhibiting endothelin-1 contractions of rat aortic rings
# Format: functional

- molecule: "COC(=O)c1ccc(CN2C(=O)CN[C@](c3ccccc3)([C@H](Oc3nc(C)cc(C)n3)C(=O)O)c3ccccc32)cc1 (racemic)"
  pA2: 6.98
- molecule: "COc1ccc(CN2C(=O)CN[C@](c3cccc(C)c3)([C@H](Oc3nc(C)cc(C)n3)C(=O)O)c3ccccc32)cc1 (racemic)"
  pA2: 6.32
- molecule: "Cc1cc(C)nc(O[C@H](C(=O)O)[C@@]2(c3ccccc3)NCC(=O)N(Cc3c(F)cccc3F)c3ccccc32)n1 (racemic)"
  pA2: 7.83
- molecule: "CCCCc1cccc([C@]2([C@H](Oc3nc(C)cc(C)n3)C(=O)O)NCC(=O)N(Cc3c(F)cccc3Cl)c3ccccc32)c1 (racemic)"
  pA2: 8.72

###

# tgt: Endothelin receptor (Rattus norvegicus, UniProt P26684+P21451)
# assay explanation: Inhibitory potency at native endothelin A and endothelin B receptors by inhibiting endothelin-1 contractions of rat aortic rings
# Assay type: functional
Measured pA2, listed per entry.
measured attribute: pA2

- molecule: "Cc1cc(C)nc(O[C@H](C(=O)O)[C@@]2(c3ccccc3)NCC(=O)N(Cc3c(F)cc(F)cc3F)c3ccccc32)n1 (racemic)"
  endpoint value: 8.18
- molecule: "COC(c1ccccc1)(c1ccccc1)[C@H](Oc1nc(C)cc(C)n1)C(=O)O (racemic) [AMBRISENTAN]"
  endpoint value: 7.09
- molecule: "Cc1cc(C)nc(O[C@H](C(=O)O)[C@@]2(c3ccccc3)NCC(=O)N(CCc3ccccc3)c3ccccc32)n1 (racemic)"
  endpoint value: 7.46
- molecule: "Cc1cc(C)nc(O[C@H](C(=O)O)[C@@]2(c3ccccc3)NCC(=O)N(Cc3ccc(F)cc3)c3ccccc32)n1 (racemic)"
  endpoint value: 7.46
- molecule: "CCCCCCN1C(=O)CN[C@](c2ccccc2)([C@H](Oc2nc(C)cc(C)n2)C(=O)O)c2ccccc21 (racemic)"
  endpoint value: 6.71
- molecule: "Cc1cc(C)nc(O[C@H](C(=O)O)[C@@]2(c3cccc(-c4ccccc4)c3)NCC(=O)N(Cc3c(Cl)cccc3Cl)c3ccccc32)n1 (racemic)"
  endpoint value: 8.98
- molecule: "CCCCc1cccc([C@]2([C@H](Oc3nc(C)cc(C)n3)C(=O)O)NCC(=O)N(Cc3c(C)cc(C)cc3C)c3ccccc32)c1 (racemic)"
  endpoint value: 7.83
- molecule: "Cc1cc(C)nc(O[C@H](C(=O)O)[C@@]2(c3ccccc3)NCC(=O)N(Cc3ccccc3)c3ccccc32)n1 (racemic)"
  endpoint value: 7.32
- molecule: "Cc1cc(C)nc(O[C@H](C(=O)O)[C@@]2(c3ccccc3)NCC(=O)N(Cc3c(F)cccc3Cl)c3ccccc32)n1 (racemic)"
  endpoint value: 7.8
- molecule: "Cc1cc(C)nc(O[C@H](C(=O)O)[C@@]2(c3ccccc3)NCC(=O)N(Cc3c(F)c(F)c(F)c(F)c3F)c3ccccc32)n1 (racemic)"
  endpoint value: 7.87
- molecule: "CCCCc1cccc([C@]2([C@H](Oc3nc(C)cc(C)n3)C(=O)O)NCC(=O)N(Cc3ccc(OC)cc3)c3ccccc32)c1 (racemic)"
  endpoint value: 7.69
- molecule: "Cc1cc(C)nc(O[C@H](C(=O)O)[C@@]2(c3ccccc3)NCC(=O)N(Cc3ccc(F)c(F)c3F)c3ccccc32)n1 (racemic)"
  endpoint value: 7.93
- molecule: "COc1ccc(CN2C(=O)CN[C@](c3cccc(-c4ccccc4)c3)([C@H](Oc3nc(C)cc(C)n3)C(=O)O)c3ccccc32)cc1 (racemic)"
  endpoint value: 7.28
- molecule: "Cc1cc(C)nc(O[C@H](C(=O)O)[C@@]2(c3ccccc3)NCC(=O)N(Cc3c(F)ccc(F)c3F)c3ccccc32)n1 (racemic)"
  endpoint value: 8.38
